system under test: KRas^G12D (Homo sapiens, UniProt P01116, G12D)
Construct: Biotinylated KRas (corresponding to amino acids 1-169, produced at Accelegan Inc.); biotin (biotinylated); purchased Accelegan Inc
Sequence (P01116 1-169 isoform P01116-2 G12D): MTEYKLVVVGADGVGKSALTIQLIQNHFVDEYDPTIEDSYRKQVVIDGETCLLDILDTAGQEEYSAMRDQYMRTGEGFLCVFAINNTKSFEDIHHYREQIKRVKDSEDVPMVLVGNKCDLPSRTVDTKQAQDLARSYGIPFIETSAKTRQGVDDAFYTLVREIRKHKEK
procedure details: KRas binding assay (TR-FRET tracer displacement), KRas G12D
measure: IC50

| compound | test value |
| --- | --- |
| C=C1CN2CC(=C)CC2(COc2nc(N3CCC[C@@](C)(O)C3)c3cnc(-c4cc(O)cc5ccc(F)c(CC)c45)c(F)c3n2)C1 | < 2 nM |
| C=C1CN2CCCC2(COc2nc(N3CCCC4(CCO4)C3)c3cnc(-c4cc(O)cc5ccc(F)c(CC)c45)c(F)c3n2)C1 (centres unmarked) | < 2 nM |
| CCc1c(F)ccc2cc(O)cc(-c3ncc4c(N5CCCCC(P(C)(C)=O)C5)nc(OC[C@@]56CCCN5C[C@H](F)C6)nc4c3F)c12 (some centres unmarked) | 35 nM |
| Fc1c(-c2cccc3cccc(F)c23)ncc2c(C3=CCCCC3)nc(OCC34CCCN3CCC4)nc12 | > 100000 nM |
| CN(C)CC1(COc2nc(N3CCCC4(CCO4)C3)c3cnc(-c4cc(O)cc5ccc(F)c(Cl)c45)c(F)c3n2)CC1 (centres unmarked) | < 2 nM |
| CCc1c(F)ccc2cc(O)cc(-c3ncc4c(N5CCC[C@@](C)(O)C5)nc(OC[C@@]56CCCN5CC(=C(F)F)C6)nc4c3F)c12 (single isomer, unassigned) | < 2 nM |
| CCc1c(F)ccc2cc(O)cc(-c3ncc4c(N5CCCC6(CCS(=O)(=O)N6)C5)nc(OC[C@@]56CCCN5C[C@H](F)C6)nc4c3F)c12 (some centres unmarked) | < 2 nM |
| CCc1c(F)ccc2cc(O)cc(-c3ncc4c(N5CCC[C@]6(C5)NC(=O)NC6=O)nc(OCC56CCCN5C/C(=C\F)C6)nc4c3F)c12 (some centres unmarked) | < 2 nM |

---

system under test: KRas^G12C (Homo sapiens, UniProt P01116, G12C)
Construct: Biotinylated KRas (corresponding to amino acids 1-169, produced at Accelegan Inc.); biotin (biotinylated); purchased Accelegan Inc
Sequence (P01116 1-169 isoform P01116-2 G12C): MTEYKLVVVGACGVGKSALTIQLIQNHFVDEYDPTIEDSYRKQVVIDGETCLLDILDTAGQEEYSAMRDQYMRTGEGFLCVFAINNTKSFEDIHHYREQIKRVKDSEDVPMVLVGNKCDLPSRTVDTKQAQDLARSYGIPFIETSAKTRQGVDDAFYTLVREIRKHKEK
procedure details: KRas binding assay (TR-FRET tracer displacement), KRas G12C
protocol conditions: TR-FRET tracer displacement, KRas G12C
measure: IC50

| compound | measure | test value |
| --- | --- | --- |
| C[C@@H]1C[C@@H]1c1c(Cl)cc(O)cc1-c1ncc2c(N3CCC[C@]4(C3)NC(=O)NC4=O)nc(OCC34CCCN3C/C(=C\F)C4)nc2c1F (stereo partly shown) [Example 937] | IC50 | < 2 nM |
| C=C1CN2CC(=C)CC2(COc2nc(N3C[C@@H]4C[C@H](C3)[C@H](O)C4)c3cnc(-c4cc(O)cc5ccc(F)c(CC)c45)c(F)c3n2)C1 [Example 796] | IC50 | < 2 nM |
| C#Cc1c(F)ccc2cc(O)cc(-c3ncc4c(N5CCC[C@@](C)(O)C5)nc(OC[C@]56CCCN5C/C(=C\F)C6)nc4c3F)c12 [Example 801] | IC50 | < 2 nM |
| C=C1CN2CCCC2(COc2nc(N3CC4C(=O)NC(=O)C4C3)c3cnc(-c4cc(O)cc5ccc(F)c(CC)c45)c(F)c3n2)C1 (stereo not shown) [Example 947] | IC50 | < 2 nM |
